Recorded values, source ChEMBL document CHEMBL1142992.

Target: Cytochrome P450 1A2 (Homo sapiens)
Sequence (P05177 whole entry): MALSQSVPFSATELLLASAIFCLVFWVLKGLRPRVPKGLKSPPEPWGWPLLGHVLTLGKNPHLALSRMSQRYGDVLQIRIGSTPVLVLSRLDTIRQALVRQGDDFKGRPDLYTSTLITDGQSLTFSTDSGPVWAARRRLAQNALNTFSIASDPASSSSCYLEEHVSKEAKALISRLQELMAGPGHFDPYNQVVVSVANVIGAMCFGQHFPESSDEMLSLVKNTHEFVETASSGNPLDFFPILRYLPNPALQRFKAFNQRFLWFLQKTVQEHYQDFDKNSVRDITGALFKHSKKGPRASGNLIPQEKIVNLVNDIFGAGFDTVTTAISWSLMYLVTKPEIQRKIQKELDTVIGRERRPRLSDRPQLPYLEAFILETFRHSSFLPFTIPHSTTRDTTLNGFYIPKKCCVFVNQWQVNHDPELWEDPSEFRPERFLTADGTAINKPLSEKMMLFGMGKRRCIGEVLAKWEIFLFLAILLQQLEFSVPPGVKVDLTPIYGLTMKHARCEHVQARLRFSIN
IC50 reference

1) O=C1NC(c2ccc(F)cc2)(c2ccc(F)cc2)CN1C1CCN(Cc2ccccc2)CC1
> 100 µM
2) O=C1NC(c2ccc(F)cc2)(c2ccc(F)cc2)CN1C1CCN(Cc2cccc(F)c2)CC1
> 100 µM

## Task Give its IC50 value. Item: O=C1NC(c2ccc(F)cc2)(c2ccc(F)cc2)CN1C1CCN(Cc2cccc(Cl)c2)CC1
## Result > 100 µM
